Exercise: state measured IC50 for each of the compounds provided.
Molecular target: Acetylcholinesterase (Electrophorus electricus, UniProt O42275)
Sequence (O42275 whole entry): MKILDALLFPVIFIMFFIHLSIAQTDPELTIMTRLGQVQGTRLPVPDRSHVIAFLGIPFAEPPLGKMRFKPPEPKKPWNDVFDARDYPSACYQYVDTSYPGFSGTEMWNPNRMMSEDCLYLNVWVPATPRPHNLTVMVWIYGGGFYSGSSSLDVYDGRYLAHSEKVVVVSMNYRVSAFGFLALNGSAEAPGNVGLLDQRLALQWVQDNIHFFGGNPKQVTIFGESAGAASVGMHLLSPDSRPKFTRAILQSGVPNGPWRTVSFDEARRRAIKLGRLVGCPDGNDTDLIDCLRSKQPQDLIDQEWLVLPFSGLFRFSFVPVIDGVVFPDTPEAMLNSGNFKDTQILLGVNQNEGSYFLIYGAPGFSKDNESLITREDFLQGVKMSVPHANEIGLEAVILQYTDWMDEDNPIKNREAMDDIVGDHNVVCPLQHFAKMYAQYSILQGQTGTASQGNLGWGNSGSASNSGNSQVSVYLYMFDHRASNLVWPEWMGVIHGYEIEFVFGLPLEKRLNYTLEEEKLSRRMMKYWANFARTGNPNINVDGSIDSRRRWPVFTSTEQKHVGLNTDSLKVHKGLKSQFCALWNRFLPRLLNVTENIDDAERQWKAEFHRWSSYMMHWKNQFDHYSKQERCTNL
The answer should read as a number with its unit following.

Entry under test: CN(C)C(=O)Oc1cccc([N+](C)(C)C)c1 [NEOSTIGMINE BROMIDE] . Its IC50 was 0.087 µM

For CNC(=O)Oc1ccc2c(c1)[C@]1(C)CCN(C(=O)NC)C1N2C (some centres not stated) the compound record lists IC50 as 9.3 µM
